- procedure-details: TEAD-YAP interaction inhibition, primary screen, TEAD-YAP interaction inhibitor project, luminescence, HEK-TIYL cells (AID 1259422)
- test-parameters: TEAD-Gal4/YAP UAS-luciferase luminescence, at 9.12 µM
The campaign covered roughly 640,000 compounds. About 9,300 (1.5%) were called active. No stated cut-off is given here; in the data, active means inhibition above about 32%; inactive means the rest. The sample holds actives, similar compounds and a random draw of the others, so the mix is not that of the screen.
The reply should be one of these categories: active, inactive

## Input So what was the verdict on O=C1c2cc(O)ccc2-c2ccc(O)cc21 in this test?
## Output inactive

## Input So what was the verdict on CCC1CCCCN1C(=O)Cn1c2ccccc2c(=O)c2cc(C)ccc21 (configuration not stated) in this test?
## Output inactive

## Input Record request — test call for CCOc1ccc(/C=C(\C#N)c2nc3ccccc3c(=O)[nH]2)cc1OC
## Output inactive

## Input I'd appreciate the recorded outcome for O=C(Nc1ccccn1)c1cc2c(s1)CCCC2 from this test.
## Output active

## Input So what was the verdict on NC(=O)c1cc(NC(=O)C(F)(F)F)cc(C(N)=O)c1 in this test?
## Output inactive

## Input Please state the recorded outcome for this molecule: COc1ccc(C(=O)N=c2sc3cc4c(cc3n2C)OCCO4)cc1OC
## Output inactive

## Input Returns: the outcome recorded for COc1ccc(S(=O)(=O)NCCN)cc1 in this assay.
## Output inactive

## Input Status in this test for c1ccc(-n2cnc3c(NCc4nc5ccccc5[nH]4)nc(Nc4nccc5ccccc45)nc32)cc1 ?
## Output inactive

## Input Would you mind telling me which call this test gave COc1cccc2cc(-c3nc(-c4ccc(C)cc4C)cs3)c(=O)oc12 ?
## Output inactive

## Input Recorded call for O=C(NCC1CCCO1)c1ncoc1-c1cccc(Cl)c1 (configuration not stated) ?
## Output inactive

## Input Called result for CCN(CC)CCOc1ccc(Nc2cc(Nc3ccccc3C(=O)NC)c(C(F)(F)F)cn2)c(OC)c1
## Output active

## Input Just curious, what result did COc1ccc(CCNC(=O)CSc2cn(C)c3ccccc23)cc1OC get here?
## Output inactive

## Input I would be grateful if you could indicate the recorded call for Cc1cccc(N2CCN(C(=O)c3cccc(C#N)c3)CC2C)c1 (configuration not stated) .
## Output active

## Input Name the outcome recorded for Nc1ccc2c(c1)C(=O)C(=O)c1cc(N)ccc1-2 in the assay.
## Output active

## Input Recorded test call requested for CC(=O)c1cccc(NC(=O)c2ncoc2-c2ccc(Cl)cc2)c1
## Output inactive

## Input Lab log entry: CCN(CC)CCNC(=O)c1ccc(Nc2cc(Nc3ccccc3C(=O)NC)c(C(F)(F)F)cn2)c(C)c1 — outcome as called in the assay?
## Output active

## Input Fill in: this test's call for Cc1cccc(N2CCN(C(=O)c3cccc(N4C(=O)C(C)CS4(=O)=O)c3)CC2)c1 (configuration not stated) is ___
## Output inactive

## Input I'd appreciate the recorded outcome for CC(C)(C)NC(=O)c1cccc(S(=O)(=O)N2CCN(c3ccc(F)cc3)CC2)c1 from this test.
## Output inactive

## Input Called result for O=C1C2C3C=CC(C3)C2C(=O)N1c1ccc(Oc2ccc(Br)cc2)cc1 (configuration not stated)
## Output inactive

## Input Given O=C(CN1C(=O)[C@H]2CCCN2C(=O)c2ccccc21)NCc1ccccc1F , state the outcome it received in this test.
## Output inactive

## Input What classification did COc1ccccc1N1CCN(S(=O)(=O)c2ccc(F)c(C(=O)Nc3ccc(C(C)C)cc3)c2)CC1 end up with in this test?
## Output inactive

## Input Short answer needed: outcome of this test for O=C(N/N=C/c1ccc([N+](=O)[O-])o1)c1cccc(F)c1 ?
## Output inactive

## Input Write down the call the test reported for this molecule. Item: CCOc1cc(/C=C(\C#N)c2nc(-c3cccs3)c(NC(C)=O)s2)ccc1O
## Output active

## Input What is the recorded call for this molecule in the test? Cn1c(-c2ccc(F)cc2Cl)c(C(=O)O)c2ccccc2c1=O
## Output inactive

## Input What call does the record list for CCOc1ccccc1OCC(=O)Nc1ccc(C(=O)O)cc1 ?
## Output inactive

## Input What classification did CCOc1cc(/C=C(\C#N)c2nc3ncc(Br)cc3[nH]2)ccc1O end up with in this test?
## Output inactive

## Input Given CC(Cl)/C(O)=C(\C#N)c1nc2ccccc2[nH]1 (configuration not stated) , state the outcome it received in this test.
## Output inactive

## Input In this assay, the call recorded for COc1cc(N2CCOCC2)ccc1Nc1cc(Nc2ccccc2-n2cccn2)c(C(F)(F)F)cn1 was what?
## Output inactive

## Input // param item: c1cncc(Nc2nc(NCc3nc4ccccc4[nH]3)c3ncn(-c4ccsc4)c3n2)c1 ; yields the recorded call
## Output active

## Input For this molecule, state the assay outcome: COc1cccc(Nc2nc(-c3cc4cccc(OC)c4oc3=O)cs2)c1
## Output inactive

## Input Write down the call the test reported for this molecule. Item: CCOC(=O)N1CCN(C(=O)c2ccc3c(=O)n(Cc4ccccc4Cl)c(=S)[nH]c3c2)CC1
## Output inactive

## Input Called result for COc1ccc(CNS(=O)(=O)c2ccc(Oc3ccc(S(=O)(=O)NCc4ccc(OC)cc4)cc3)cc2)cc1
## Output active

## Input Per the records of this test, what outcome belongs to CCOC(=O)c1ccc(S(=O)(=O)NNC(=O)CCN2C(C)CCCC2C)cc1 (configuration not stated) ?
## Output inactive

## Input Which outcome was assigned to O=C1c2cc(S(=O)(=O)N3CCCC3)ccc2-c2ccc(S(=O)(=O)N3CCCC3)cc21 in this test?
## Output inactive

## Input Test call, this molecule: Cc1cccc(N2CCN(C(=O)c3ccc4c(c3)C(=O)N(CCC3=CCCCC3)C4=O)CC2C)c1 (configuration not stated)
## Output inactive

## Input // param item: Cc1nc(C)n(-c2ccc(Nc3ncc4ccc(-c5cnn(C)c5)cc4n3)cc2)n1 ; yields the recorded call
## Output active

## Input For this molecule, state the assay outcome: O=C(N/N=C/c1ccc([N+](=O)[O-])o1)c1cc(Cl)ccc1O
## Output inactive

## Input Answer briefly: the call reported for CNC(=O)c1ccccc1Nc1cc(Nc2ccc(C(=O)N(C)C)cc2)ncc1C(F)(F)F in this assay.
## Output active

## Input Hello, I am checking results. What call was entered for CCOC(=O)c1sc2nc(C)nc(N3CCCCC3)c2c1C ?
## Output inactive

## Input Dear all, I need the recorded test outcome for Cc1ccccc1NC(=O)CCC(=O)OCC(=O)c1ccc([N+](=O)[O-])cc1 , thank you.
## Output inactive

## Input Answer briefly: the call reported for CC1=CN2C(=O)NC(C(F)(F)F)(C(F)(F)F)N=C2S1 in this assay.
## Output inactive

## Input Recorded test outcome, item Cc1ccc(OCc2nc3ccccc3n2CC(=O)Nc2cc(C)on2)cc1
## Output inactive

Cited source: PubChem BioAssay AID1259422
